Taken from paper PMC6556873.

# Assay Notes: in vitro
# Design: species or system HB2, CCD841
# Run Conditions: human, hek293 cells
Measure: viability at 48 h, 10 µM (%)
Give your result in % as a bare value.

Query: Consider the compound shown here: Cc1cc(C)c(C(C)NC(=O)CCl)cc1C (stereo not shown) What is its recorded viability at 48 h, 10 µM?
Reply: 59.6

Query: Any idea what its viability at 48 h, 10 µM is? The compound is `CN(CC(F)(F)F)C(=O)CCl`
Reply: 101

Query: Entry `O=C(CCl)Nc1ccccc1C(F)(F)F` has what viability at 48 h, 10 µM?
Reply: 72.6

Query: Tell me the measured viability at 48 h, 10 µM of `O=C(CCl)N1CC=C(c2c[nH]c3ccccc23)CC1` , please.
Reply: 46.3

Query: Report viability at 48 h, 10 µM for `O=C(CCl)Nc1ncc(Br)s1` please.
Reply: 23

Query: State the recorded viability at 48 h, 10 µM for this entry: O=C(CCl)N1N=C(c2ccco2)CC1c1ccsc1 (stereo not shown)
Reply: 3.5

Query: Entry `O=C(CCl)Nc1ccccc1O` has what viability at 48 h, 10 µM?
Reply: 80.8

Query: Item CC(NC(=O)CCl)c1ccc(F)cc1 (stereo not shown) has what recorded viability at 48 h, 10 µM?
Reply: 63.8

Query: viability at 48 h, 10 µM for `N#Cc1cnn(-c2ccccc2)c1NC(=O)CCl` ?
Reply: 91

Query: May I ask what viability at 48 h, 10 µM has been recorded for `Cc1c(C#N)c(NC(=O)CCl)n(-c2cccc(F)c2)c1C` ?
Reply: 3.5

Query: So what does the record say about viability at 48 h, 10 µM for `N#Cc1cccc(C(=O)NNC(=O)CCl)c1` ?
Reply: 102

Query: What viability at 48 h, 10 µM value was documented for this compound, O=C(CCl)N(c1ccccc1)C1CCS(=O)(=O)C1 (stereo not shown) ?
Reply: 16.7

Query: Give the measured viability at 48 h, 10 µM of `Cc1nn(C)c(C)c1NC(=O)CCl` .
Reply: 99.6

Query: For the compound shown here, `C=CC(=O)N1CCC(c2nc(C(F)(F)F)cs2)CC1` , give the reported viability at 48 h, 10 µM.
Reply: 96.6

Query: Entry `CC1CCN(c2ccc(NC(=O)CCl)cc2)CC1.Cl` has what viability at 48 h, 10 µM?
Reply: 18.9
